experimental-target: human PPARδ (137–441aa) ligand binding domain (Homo sapiens)
Construct: δ (137–441aa); expressed in transfected cells; host or cells: COS-7
Sequence (Q03181 137-441): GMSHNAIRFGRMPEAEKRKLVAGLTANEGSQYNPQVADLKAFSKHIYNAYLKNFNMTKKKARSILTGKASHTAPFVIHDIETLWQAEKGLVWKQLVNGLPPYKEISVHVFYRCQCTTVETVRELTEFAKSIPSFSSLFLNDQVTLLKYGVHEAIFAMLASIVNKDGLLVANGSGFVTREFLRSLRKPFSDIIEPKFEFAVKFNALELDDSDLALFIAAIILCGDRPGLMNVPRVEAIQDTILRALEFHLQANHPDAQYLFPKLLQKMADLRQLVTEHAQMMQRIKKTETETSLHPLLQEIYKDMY
experimental-protocol: PPAR transfection (Gal4-LBD luciferase reporter) assay, hPPARδ
Assay type: cell-based
condition-summary: at 10-fold concentration of EC50 value in activation of hPPARα; ratio to DMSO control

compound	activation factor, hPPARδ (FIGS. 1 to 5)
CC(C)(Oc1ccc(CCCN(CCc2ccccc2)c2nc3ccccc3s2)cc1)C(=O)O	strongly activate
CC(C)(Oc1ccc(CCCN(CCc2ccccc2)C(=O)c2nc3ccccc3s2)cc1)C(=O)O [Compound B, reference compound]	strongly activate

---

experimental-target: human PPARγ (182–505aa) ligand binding domain (Homo sapiens, UniProt P37231)
Construct: γ(182–505aa); expressed in transfected cells; host or cells: COS-7
experimental-protocol: PPAR transfection (Gal4-LBD luciferase reporter) assay, hPPARγ
Format: cell-based
condition-summary: transfected COS-7 cells, 16 hours, luciferase activity; read-out: hPPAR; EC50 γ (agonist activity)
Protocol: COS-7 cells, which is African green monkey kidney cell line, were used for all transfection assays. Cells were cultured in DMEM medium supplemented with 10% fetal bovine serum, glutamic acid, and an antibiotic under humidified 5% CO2 atmosphere. […] Transiently transfected cells were incubated with DMEM with 0.2% FCS with or without compound. And after 16 hours, luciferase activity and β-galactosidase activity of cell lysate were measured. […]
pEC50: −log10 of the molar value.
List of pEC50 values.

Before answering, review these 3 worked examples.
compound	pEC50
CC(Oc1cccc(CCN(CCOc2ccccc2)c2nc3cc(F)ccc3o2)c1)C(=O)O (stereo not shown)	< 4.00
CC(Oc1cccc(CN(CCCOc2ccccc2)c2nc3cc4c(cc3o2)OCO4)c1)C(=O)O (stereo not shown)	< 5.00
CCC(Oc1cccc(CN(CCCOc2ccc(F)cc2)c2nc3ccccc3o2)c1)C(=O)O (stereo not shown)	< 4.00

Now let's try a different one.
# compound CC(Oc1cccc(CN(CCCOc2ccc3c(c2)OCO3)c2nc3ccccc3o2)c1)C(=O)O (stereo not shown) ; its pEC50 = 5.92

---

experimental-target: human PPARγ (182–505aa) ligand binding domain (Homo sapiens)
Construct: γ(182–505aa); expressed in transfected cells; host or cells: COS-7
Sequence (P37231 182-505): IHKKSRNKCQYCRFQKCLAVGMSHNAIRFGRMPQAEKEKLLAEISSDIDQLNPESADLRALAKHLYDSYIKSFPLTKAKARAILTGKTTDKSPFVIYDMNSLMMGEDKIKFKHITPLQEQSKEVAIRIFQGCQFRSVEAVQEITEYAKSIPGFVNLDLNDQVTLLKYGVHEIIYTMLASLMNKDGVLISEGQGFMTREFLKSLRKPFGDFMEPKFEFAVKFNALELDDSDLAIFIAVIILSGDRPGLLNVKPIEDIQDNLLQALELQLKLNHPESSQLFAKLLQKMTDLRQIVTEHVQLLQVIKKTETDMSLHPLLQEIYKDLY
experimental-protocol: PPAR transfection (Gal4-LBD luciferase reporter) assay, hPPARγ
Type: cell-based
condition-summary: transfected COS-7 cells, 16 hours, luciferase activity; read-out: hPPAR; EC50 γ (agonist activity)
Experimental: COS-7 cells, which is African green monkey kidney cell line, were used for all transfection assays. Cells were cultured in DMEM medium supplemented with 10% fetal bovine serum, glutamic acid, and an antibiotic under humidified 5% CO2 atmosphere. […] Transiently transfected cells were incubated with DMEM with 0.2% FCS with or without compound. And after 16 hours, luciferase activity and β-galactosidase activity of cell lysate were measured. […]
reported-metric: pEC50
// returns pEC50 (minus log10 of molar concentration), number only

molecule	experimental-target	pEC50
CC(Oc1cccc(CCN(CCOc2ccc(F)cc2)c2nc3cc(Cl)ccc3o2)c1)C(=O)O (stereo not shown) [Example 36]	human PPARγ (182–505aa) ligand binding domain (Homo sapiens)	5.68

# molecule Cc1ccc2oc(N(CCCOc3ccc(F)cc3)Cc3cccc(OC(C)C(=O)O)c3)nc2c1 (stereo not shown) [Example 153] ; its pEC50 = 5.60
